# study.system: T1, Human soluble IL-6R (human, UniProt P08887 20-358)
# T1 construct: Soluble recombinant form; biotinylated in some assays; also called hIL-6R; human IL-6R
# T1 sequence (looked up): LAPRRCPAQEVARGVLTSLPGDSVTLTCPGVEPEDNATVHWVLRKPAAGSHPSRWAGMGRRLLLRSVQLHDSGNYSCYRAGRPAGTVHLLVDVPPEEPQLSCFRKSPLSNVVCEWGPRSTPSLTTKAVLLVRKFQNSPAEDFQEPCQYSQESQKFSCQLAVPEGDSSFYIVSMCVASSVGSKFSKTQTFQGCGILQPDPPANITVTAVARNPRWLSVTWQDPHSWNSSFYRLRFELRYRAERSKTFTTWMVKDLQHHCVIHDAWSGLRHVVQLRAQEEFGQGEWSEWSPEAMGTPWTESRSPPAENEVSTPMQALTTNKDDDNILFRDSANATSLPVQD
# experimental.details: Alphascreen, inhibition of bio-IL-6 binding to IL-6R
assay.readout: IC50 (nM)

INSERT INTO measurements (binder, unit_of_measurement, measured) VALUES
  ('IL6R07 (VHH, also called PMP33A3; not shown: C-terminal c-myc and (His)6 tags) VHH: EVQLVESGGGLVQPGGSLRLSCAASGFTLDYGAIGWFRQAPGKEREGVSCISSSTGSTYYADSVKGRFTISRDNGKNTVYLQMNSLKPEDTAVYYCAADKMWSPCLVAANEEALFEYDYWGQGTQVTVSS', 'nM', 1.44),
  ('IL6R11 (VHH, also called PMP35E11; not shown: C-terminal c-myc and (His)6 tags) VHH: EVQLVESGGGLVQAGGSLRLSCAASGFTFDDYAIGWFRQAPGKEHEGVSCISSSDGSTYYADSVKGRFTISSDNAKNTVYLQMNSLKPEDTAVYYCAAERDVPARSLCGSYYWYDYRGQGTQVTVSS', 'nM', 0.158);

Reference source for all entries: patent US20120077731A1
